tested on: Candida albicans; test: In vitro minimum potentiation concentration to achieve an 8-fold reduction in fluconazole MIC against Candida albicans strain YEM15 (overexpressing both CDR1 and CDR2); type: functional

{"COMPOUND": "COc1ccc(N(C(=O)Nc2ccc(F)cc2)C(C)c2nc3c(OC)cccc3c(=O)n2N2CCN(C)CC2)c(OC)c1 (stereo not drawn)", "SYSTEM NAME": "Candida albicans", "UNIT INFO": "µg/mL", "REL": "=", "MPC8": 8}
{"COMPOUND": "COc1ccc(N(C(=O)c2ccc(Cl)cc2)C(C)c2nc3ccccc3c(=O)n2N2CCN(C)CC2)c(OC)c1 (stereo not drawn)", "SYSTEM NAME": "Candida albicans", "UNIT INFO": "µg/mL", "REL": "=", "MPC8": 4}
{"COMPOUND": "COc1cc(OC)c(N(C(=O)Nc2ccc(F)cc2)C(C)c2nc3ccccc3c(=O)n2N2CCN(C)CC2)c(OC)c1 (stereo not drawn)", "SYSTEM NAME": "Candida albicans", "UNIT INFO": "µg/mL", "REL": ">", "MPC8": 32}
{"COMPOUND": "COc1ccc(N(C(=O)Nc2ccc(F)cc2)C(C)c2nc3cccc(F)c3c(=O)n2N2CCN(C)CC2)c(OC)c1 (stereo not drawn)", "SYSTEM NAME": "Candida albicans", "UNIT INFO": "µg/mL", "REL": "=", "MPC8": 8}
{"COMPOUND": "CCC(=O)Oc1ccc2nc(C(C)N(C(=O)Nc3ccc(F)cc3)c3ccc(OC)cc3OC)n(N3CCN(C)CC3)c(=O)c2c1 (stereo not drawn)", "SYSTEM NAME": "Candida albicans", "UNIT INFO": "µg/mL", "REL": "=", "MPC8": 4}
{"COMPOUND": "COc1ccc(N(C(=O)Oc2ccc(Cl)cc2)C(C)c2nc3ccccc3c(=O)n2N2CCN(C)CC2)c(OC)c1 (stereo not drawn)", "SYSTEM NAME": "Candida albicans", "UNIT INFO": "µg/mL", "REL": "=", "MPC8": 32}
{"COMPOUND": "CC(c1nc2ccccc2c(=O)n1N1CCN(C)CC1)N(C(=O)Nc1ccc(F)cc1)c1ccc(F)cc1F (stereo not drawn)", "SYSTEM NAME": "Candida albicans", "UNIT INFO": "µg/mL", "REL": "=", "MPC8": 8}
{"COMPOUND": "COc1ccc(N(C(=O)Nc2cccc(Cl)c2)C(C)c2nc3ccccc3c(=O)n2N2CCN(C)CC2)c(OC)c1 (stereo not drawn)", "SYSTEM NAME": "Candida albicans", "UNIT INFO": "µg/mL", "REL": "=", "MPC8": 1}
